MEASURED ON: biotinylated HRP (Armoracia rusticana)
Construct: purchased Roche Diagnostics, Indianapolis, Ind., USA
Sequence (P00433 31-338 limits assumed): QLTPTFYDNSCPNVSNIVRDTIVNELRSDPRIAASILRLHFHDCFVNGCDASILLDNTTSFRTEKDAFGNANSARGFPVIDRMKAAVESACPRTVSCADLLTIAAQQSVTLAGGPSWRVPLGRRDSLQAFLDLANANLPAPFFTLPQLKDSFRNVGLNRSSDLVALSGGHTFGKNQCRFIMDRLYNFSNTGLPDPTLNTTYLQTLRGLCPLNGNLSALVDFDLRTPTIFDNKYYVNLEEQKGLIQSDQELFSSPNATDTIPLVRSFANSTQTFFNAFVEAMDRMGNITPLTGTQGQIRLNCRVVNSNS
PROCEDURE DETAILS: Model system for selection of SSIA (M280 btn-BSA-AK1-streptavidin particles + Btn-HRP:HRP)
Type: biochemical
CONDITION DETAILS: Btn-HRP 0 ng/mL, total HRP 500 ng/mL; SSIA final 100 μM
Experimental: The model system uses a microparticle conjugated to BSA (bovine serum albumin) labeled with a […] and acridan ketenedithioacetal chemiluminescent label (AK1) as the chemiluminescent-labeled sbp, and biotinylated HRP as the activator-labeled specific binding pair. In the model system, varying amounts of Btn-HRP is added to the chemiluminescent-labeled specific binding pair at 0, 1, 10, 100 and 250 ng/mL. […]
READOUT KIND: B-HRP0 light intensity
Respond using a number only.

CCCCCCCCCCCCCCCC(=O)OC[C@H](O)[C@H]1OC(=O)C(O)=C1O [Ascorbic Acid 6-palmitate, L-Ascorbic acid 6-Palmitate] :: 81
Cl.Nc1ccc(O)cc1O [4-aminoresorcinol HCl, 4-aminoresorcinol hydrochloride] :: 675
Cc1c(C)c2c(c(C)c1O)CCC(C)(C(=O)O)O2 (stereo not drawn) :: 173

// query B-HRP0 light intensity value for entry Nc1ccccc1O
65

Reference source: patent US20100273189A1
